test: Tissue distribution of SHR9146 in mice after oral gavage of 40 mg/kg; format: in vivo, ICR mice; conditions: female, ICR, mouse, lung, po, 40 mg/kg, female, 6 h, 40 mg/kg oral gavage, Mean (n=3); read-out: SHR9146 concentration in Lung
Property label: concentration at 6 h

INPUT: Using the record for `OCCn1cc(-c2ccc(N3CCC([C@H]4c5c(F)cccc5-c5cncn54)CC3)cc2)cn1` , report its concentration at 6 h.
OUTPUT: 1380 ng/g

* * *

assay: Tissue distribution of SHR9146 in mice after oral gavage of 40 mg/kg; type: in vivo, ICR mice; conditions: female, ICR, mouse, stomach, po, 40 mg/kg, female, 1 h, 40 mg/kg oral gavage, individual mice; read-out: SHR9146 concentration in Stomach
Property label: concentration at 1 h (ng/g)
// units = ng/g; emit number, no label

INPUT: Using the record for `OCCn1cc(-c2ccc(N3CCC([C@H]4c5c(F)cccc5-c5cncn54)CC3)cc2)cn1` , report its concentration at 1 h.
OUTPUT: 27400
